- system-name: tau (Homo sapiens)
- Sequence (P10636 2-758 limits assumed): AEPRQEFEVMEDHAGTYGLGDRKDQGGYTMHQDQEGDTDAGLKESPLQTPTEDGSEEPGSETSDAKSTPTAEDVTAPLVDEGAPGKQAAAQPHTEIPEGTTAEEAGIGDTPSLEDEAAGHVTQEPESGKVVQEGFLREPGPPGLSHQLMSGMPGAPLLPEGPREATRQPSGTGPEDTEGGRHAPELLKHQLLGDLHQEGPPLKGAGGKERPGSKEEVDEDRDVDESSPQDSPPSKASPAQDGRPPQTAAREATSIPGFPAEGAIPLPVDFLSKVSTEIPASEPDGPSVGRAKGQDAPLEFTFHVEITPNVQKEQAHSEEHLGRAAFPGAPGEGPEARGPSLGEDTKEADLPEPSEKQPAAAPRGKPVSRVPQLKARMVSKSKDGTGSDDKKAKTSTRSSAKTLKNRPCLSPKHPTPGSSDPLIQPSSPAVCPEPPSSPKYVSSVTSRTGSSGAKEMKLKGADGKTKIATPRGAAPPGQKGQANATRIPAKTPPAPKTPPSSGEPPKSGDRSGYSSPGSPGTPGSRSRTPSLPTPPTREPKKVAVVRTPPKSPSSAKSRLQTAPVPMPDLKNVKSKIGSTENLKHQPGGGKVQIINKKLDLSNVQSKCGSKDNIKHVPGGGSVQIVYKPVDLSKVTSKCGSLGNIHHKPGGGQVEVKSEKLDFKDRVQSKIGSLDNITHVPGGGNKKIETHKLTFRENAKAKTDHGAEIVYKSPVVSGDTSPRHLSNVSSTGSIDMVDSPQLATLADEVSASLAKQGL
- measurement-description: displacement tau binding assay in AD brain homogenates with [^3H]-6
- condition-label: Table 1, displacement of [^3H]-6 (0.25 nM)
hey, just use condition met if measured Ki is less than 2 nM, otherwise condition not met

Inquiry: Item c1cc2ccn(-c3ccc(-c4cncs4)cn3)c2cn1 [Compound 53] : Ki beneath 2 nM, strictly?
Reply text: condition met

Inquiry: Please state whether Ki is below 2 nM for C=Cc1cc(-n2ccc3ccncc32)ncc1C#CCF [Compound 30]
Reply text: condition not met

Inquiry: # strict comparison: is reported Ki < 2 nM? input = FCOc1ccc2cc(-n3ccc4ccncc43)ncc2c1 [Compound 17]
Reply text: condition met

Inquiry: Does the reported Ki of the following compound sit strictly below 2 nM? FCCOc1ccc2nc(-n3ccc4ccncc43)ncc2c1 [Compound 69]
Reply text: condition not met

Inquiry: Lab note: Ki threshold 2 nM. Does this compound come in strictly under it? CN(CCF)c1ccc2cnc(-n3ccc4ccncc43)cc2c1 [Compound 14]
Reply text: condition not met

Inquiry: Determine if Cc1cc2cnc(-n3ccc4ccncc43)cc2o1 [Compound 23] shows Ki strictly lower than 2 nM.
Reply text: condition not met

Inquiry: Problem: For the compound FCCOc1cccc2cc(-n3ccc4ccncc43)ncc12 [Compound 67] , is Ki under 2 nM?
Reply text: condition not met

Inquiry: Is it true that Ki reported for CC#Cc1cnc(-n2ccc3ccncc32)cc1OC [Compound 33] is less than 2 nM?
Reply text: condition not met

Inquiry: In the record for c1ccc2cc(-n3ccc4ccncc43)ncc2c1 [Compound 6] , is Ki less than 2 nM?
Reply text: condition met

Inquiry: Below 2 nM on Ki? Entry Nc1ccc2cc(-n3ccc4ccncc43)ncc2c1 [Compound 12]
Reply text: condition met

Inquiry: Identify whether the compound OC1CCN(c2ccc(-n3ccc4ccncc43)nc2)CC1 [Compound 42] records Ki below 2 nM.
Reply text: condition not met

Inquiry: Quick check: Ki of OCCC1CCN(c2ccc(-n3ccc4ccncc43)nc2)CC1 [Compound 31-1] under 2 nM?
Reply text: condition not met

Inquiry: Confirm or reject: Ki of COc1cccc2cnc(-n3ccc4ccncc43)cc12 [Compound 70] lies strictly below 2 nM
Reply text: condition not met

Inquiry: Lab log: compare recorded Ki with 2 nM; is it strictly lower for Cn1cnc(-c2ccc(-n3ccc4ccncc43)nc2)c1 [Compound 65] ?
Reply text: condition not met

Inquiry: Decide: Ki of c1cc2ccn(-c3cc4c(cn3)CCCN4)c2cn1 [Compound 39] strictly below 2 nM?
Reply text: condition not met

Inquiry: # strict comparison: is reported Ki < 2 nM? input = Nc1c(F)ccc2cnc(-n3ccc4ccncc43)cc12 [Compound 18]
Reply text: condition met

Inquiry: Determine if CC#Cc1cnc(-n2ccc3ccncc32)cc1CO [Compound 21-4] shows Ki strictly lower than 2 nM.
Reply text: condition not met

Inquiry: I wonder whether Oc1ccc2cnc(-n3ccc4ccncc43)cc2c1 [Compound 75] has Ki below 2 nM. Can you tell?
Reply text: condition met

Inquiry: Does this compound meet the criterion Ki < 2 nM? COc1ccc2cc(-n3ccc4ccncc43)ncc2c1 [Compound 13]
Reply text: condition met

Inquiry: Threshold test, Ki < 2 nM: c1cc2ccn(-c3ccc(-c4nc[nH]n4)cn3)c2cn1 [Compound 41]
Reply text: condition not met

Inquiry: Determine whether this compound shows Ki lower than 2 nM (ties excluded): c1cc2ccn(-c3cc4cc[nH]c4cn3)c2cn1 [Compound 8]
Reply text: condition met

----------
Would you mind telling me the reported Ki of each entry?
- system-name: tau (Homo sapiens)
- measurement-description: displacement tau binding assay in AD brain homogenates with [^3H]-6
- condition-label: Table 1, displacement of [^3H]-6 (0.25 nM)
Field format: number, assumed nM, no unit text.

Inquiry: Please give the documented Ki of c1cnc(-c2ccc(-n3ccc4ccncc43)nc2)cn1
Reply text: 3.17

Inquiry: Quickly give me recorded Ki for Oc1cccc2cnc(-n3ccc4ccncc43)cc12
Reply text: 0.67

Inquiry: // fetch Ki given entry Fc1ccc2cnc(-n3ccc4ccncc43)cc2c1
Reply text: 0.22

Inquiry: Please give the documented Ki of c1cc2cnc(-n3ccc4ccncc43)cc2cn1
Reply text: 2.27

Inquiry: Return Ki (reported value) for this molecule: FCCn1ccc(-c2cnc(-n3ccc4ccncc43)nc2)n1
Reply text: 2.41

----------
- system-name: UniProt P10636
- measurement-description: displacement tau binding assay in AD brain homogenates with [^3H]-6
- condition-label: Table 1, displacement of [^3H]-6 (0.25 nM)
measured-parameter: pKi
As a rule, pKi stands for the negative log10 of the concentration, concentration in M.

Inquiry: Specify pKi for Fc1nc(-n2ccc3ccncc32)ccc1-c1cccnc1 and stop.
Reply text: 7.71

Inquiry: Fill in reported pKi for this entry: Fc1cccc2cnc(-n3ccc4ccncc43)cc12
Reply text: 8.98

Inquiry: Dear colleague, please send me the reported pKi for Fc1ccc(-c2ccc(-n3ccc4ccncc43)nc2)cn1 when you can.
Reply text: 8.69

Inquiry: Supply reported pKi belonging to this compound: Oc1cccc2cc(-n3ccc4ccncc43)ncc12
Reply text: 8.94

Inquiry: Tell me measured pKi for FCCOc1cccc2cnc(-n3ccc4ccncc43)cc12 please.
Reply text: 6.76

----------
- system-name: UniProt P10636
- measurement-description: displacement tau binding assay in AD brain homogenates with [^3H]-6
- condition-label: Table 1, displacement of [^3H]-6 (0.25 nM)
Answer each item with its documented Ki.
Give just the number in nM; leave the unit off.

Inquiry: Quickly give me recorded Ki for COc1cccc2cc(-n3ccc4ccncc43)ncc12 [Compound 103]
Reply text: 0.32

Inquiry: Quick one: give measured Ki for ClCCC1CCN(c2ccc(-n3ccc4ccncc43)nc2)CC1 [Compound 31]
Reply text: 2.88

Inquiry: Determine its reported Ki: CNc1ccc2cnc(-n3ccc4ccncc43)cc2c1 [Compound 14-1]
Reply text: 0.33

Inquiry: Give Ki for Fc1cc(-c2ccc(-n3ccc4ccncc43)nc2)ccn1 [Compound 44]
Reply text: 1.13

Inquiry: Please supply the value of reported Ki for the item c1ccc(-c2ccc(-n3ccc4ccncc43)nc2)nc1 [Compound 101]
Reply text: 1.14

Inquiry: Could you please provide reported Ki for Cc1cc(-n2ccc3ccncc32)ncc1OCCF [Compound 32] ? Thanks!
Reply text: 2.98

Inquiry: Give the reported value of Ki for this record: FCOc1cccc2cc(-n3ccc4ccncc43)ncc12 [Compound 55]
Reply text: 1.14

Inquiry: State, in one line, measured Ki of Fc1ccc2nc(-n3ccc4ccncc43)ncc2c1 [Compound 62]
Reply text: 2.55

Inquiry: Give Ki for CNc1cc(-c2ccc(-n3ccc4ccncc43)nc2)ccn1 [Compound 93]
Reply text: 0.53

Inquiry: Determine from records and report Ki for CN(C)c1ccc(-c2ccc(-n3ccc4ccncc43)nc2)cn1 [Compound 95]
Reply text: 0.96

----------
- system-name: tau (Homo sapiens)
- measurement-description: displacement tau binding assay in AD brain homogenates with [^3H]-6
- condition-label: Table 1, displacement of [^3H]-6 (0.25 nM)
Exam item: assign YES to entries whose Ki is below 1 nM and NO to entries at or above 1 nM. Note that a value of exactly 1 nM receives NO.

Inquiry: Dear colleague, could you confirm whether Ki of CCNc1cc(-c2ccc(-n3ccc4ccncc43)nc2)ccn1 [Compound 94] falls below 1 nM? Thanks.
Reply text: NO

Inquiry: Below 1 nM on Ki? Entry Nc1cccc2cnc(-n3ccc4ccncc43)cc12 [Compound 11-5]
Reply text: YES

Inquiry: hey, is Ki for Nc1cccc2cc(-n3ccc4ccncc43)ncc12 [Compound 59] lower than 1 nM or not?
Reply text: YES

Inquiry: Does the reported Ki of the following compound sit strictly below 1 nM? Nc1ccc(-c2ccc(-n3ccc4ccncc43)nc2)cn1 [Compound 100]
Reply text: NO

Inquiry: Determine if FC1CCN(c2ccc(-n3ccc4ccncc43)nc2)CC1 [Compound 43] shows Ki strictly lower than 1 nM.
Reply text: NO

----------
Would you kindly list Ki for each of these compounds?
- system-name: tau (Homo sapiens)
- measurement-description: displacement tau binding assay in AD brain homogenates with [^3H]-6
- condition-label: Table 1, displacement of [^3H]-6 (0.25 nM)
The reply should contain only the number, in nM.

Inquiry: Look up and state reported Ki for CC#Cc1cnc(-n2ccc3ccncc32)cc1F
Reply text: 1.43

Inquiry: Give Ki for FCCn1ccc(-c2ccc(-n3ccc4ccncc43)nc2)n1
Reply text: 1.71

Inquiry: Read off the recorded Ki for CC#Cc1cnc(-n2ccc3ccncc32)cc1CF
Reply text: 4.1

Inquiry: // Input: COc1ccc(NC(=O)c2ccc(-n3ccc4ccncc43)nc2)cc1 . Output its Ki only.
Reply text: 3.83

Inquiry: Fill in reported Ki for this entry: Cn1ccc2cc(-n3ccc4ccncc43)ncc21
Reply text: 0.62

Inquiry: Specify measured Ki for Fc1cccc(-c2ccc(-n3ccc4ccncc43)nc2)n1 .
Reply text: 1.41

Inquiry: For the compound Cn1ccc(-c2ccc(-n3ccc4ccncc43)nc2)n1 , give its measured Ki value.
Reply text: 2.84

Inquiry: Output Ki of CC#Cc1ccc(-n2ccc3ccncc32)nc1
Reply text: 0.98

Inquiry: Provide measured Ki value, entry: Ic1ccc2cnc(-n3ccc4ccncc43)cc2c1
Reply text: 0.75

Inquiry: Fill in reported Ki for this entry: FCOc1ccc2cnc(-n3ccc4ccncc43)cc2c1
Reply text: 1.23

Inquiry: Quote Ki reported for FCC#Cc1ccc(-n2ccc3ccncc32)nc1 please.
Reply text: 1.65

Inquiry: Please give measured Ki of the following entry: CN(CCO)c1ccc2cnc(-n3ccc4ccncc43)cc2c1
Reply text: 4.07

Inquiry: Please give measured Ki of the following entry: FCCNc1ccc(-n2ccc3ccncc32)nc1
Reply text: 4.96

Inquiry: # return recorded Ki for input CN(C)c1ccc2cnc(-n3ccc4ccncc43)cc2c1
Reply text: 2.23

Inquiry: Supply reported Ki belonging to this compound: Cc1cc(-n2ccc3ccncc32)ncc1C#CCF
Reply text: 0.87

Inquiry: Give reported Ki value for COc1ccc2nc(-n3ccc4ccncc43)ncc2c1
Reply text: 1.55

Inquiry: For Fc1ccc2cnc(-n3ccc4ccncc43)cc2n1 , write its Ki.
Reply text: 52.7

Inquiry: Please give the documented Ki of FCCCNc1ccc(-n2ccc3ccncc32)nc1
Reply text: 3.19

Inquiry: Quick one: give measured Ki for FCCOc1ccc2cc(-n3ccc4ccncc43)ncc2c1
Reply text: 0.41

Inquiry: Return the recorded Ki value; entry: Nc1cc(-c2ccc(-n3ccc4ccncc43)nc2)ccn1
Reply text: 0.55

Inquiry: Answer with reported Ki of C#Cc1cnc(-n2ccc3ccncc32)cc1C
Reply text: 0.75
